Species on record: Rattus norvegicus
Assay procedure: DrugMatrix - Regimen: Daily Repeat
Assay type: toxicity, organism-based, Sprague-Dawley
Design: regimen Daily Repeat, gender Male, age 6-8 weeks
Cond: in vivo, po, 0 mg/kg, 72 h, tissue Blood, route oral GAVAGE, dose level Control, time 3 day, vehicle .5 % CMC
Readings of HEMATOCRIT for the listed compounds
Measured metric: HEMATOCRIT (%)

Cc1nc2n(c(=O)c1CCN1CCC(c3noc4cc(F)ccc34)CC1)CCCC2 [RISPERIDONE] :: 36.94
CN1CCN(CCCN2c3ccccc3Sc3ccc(Cl)cc32)CC1 [PROCHLORPERAZINE] :: 35.58
CCCN1C[C@H](CSC)C[C@@H]2c3cccc4[nH]cc(c34)C[C@H]21 [PERGOLIDE] :: 34.05
ClC(Cl)Br [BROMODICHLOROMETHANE] :: 32.22
Cc1ccc2cc3c(ccc4ccccc43)c3c2c1CC3 [3-METHYLCHOLANTHRENE] :: 43.07
CCn1cc(C(=O)O)c(=O)c2cc(F)c(N3CCNCC3)cc21 [NORFLOXACIN] :: 36.57
Nc1ccn([C@H]2CC[C@@H](CO)O2)c(=O)n1 [ZALCITABINE] :: 43.13
COc1nc(C)nc(Cl)c1N=C1NCCN1 [MOXONIDINE] :: 34.43
ClC(Br)Br [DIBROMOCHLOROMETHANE] :: 32.22
CCCCc1oc2ccccc2c1C(=O)c1cc(I)c(OCCN(CC)CC)c(I)c1 [AMIODARONE] :: 36.94
CC(C)(C)NC(=O)[C@@H]1C[C@@H]2CCCC[C@@H]2CN1C[C@@H](O)[C@H](Cc1ccccc1)NC(=O)[C@H](CC(N)=O)NC(=O)c1ccc2ccccc2n1 :: 36.52
NC1=NC(=O)C(c2ccccc2)O1 (centres undefined) [PEMOLINE] :: 38.8
O=C(CCCN1CC=C(n2c(=O)[nH]c3ccccc32)CC1)c1ccc(F)cc1 [DROPERIDOL] :: 44.65
Cc1ccc(/N=C/N(C)/C=N/c2ccc(C)cc2C)c(C)c1 [AMITRAZ] :: 36.57
OCCN(CCO)c1nc(N2CCCCC2)c2nc(N(CCO)CCO)nc(N3CCCCC3)c2n1 [DIPYRIDAMOLE] :: 37.62
CC1CC(OC(=O)C(O)c2ccccc2)CC(C)(C)C1 (centres undefined) [CYCLANDELATE] :: 37.62
CCOP(=S)(OCC)Oc1nc(Cl)c(Cl)cc1Cl [CHLORPYRIFOS] :: 41.88
N=C(N)NCCN1CCCCCCC1 [GUANETHIDINE] :: 37.62
C1CCC(C(CC2CCCCN2)C2CCCCC2)CC1 (centres undefined) [PERHEXILINE] :: 42

* * *

Species on record: Rattus norvegicus
Assay procedure: DrugMatrix - Regimen: Daily Repeat
Type: toxicity, organism-based, Sprague-Dawley
Parameters: regimen Daily Repeat, gender Male, age 6-8 weeks
Cond: in vivo, po, 0 mg/kg, 72 h, tissue Plasma, route oral GAVAGE, dose level Control, time 3 day, vehicle .5 % CMC
Mark Criterion met for reported ALBUMIN of 4 G/DL or greater; mark Criterion not met for anything smaller.

Cc1nc2n(c(=O)c1CCN1CCC(c3noc4cc(F)ccc34)CC1)CCCC2 :: Criterion not met
CC(C)(C)NC(=O)[C@@H]1C[C@@H]2CCCC[C@@H]2CN1C[C@@H](O)[C@H](Cc1ccccc1)NC(=O)[C@H](CC(N)=O)NC(=O)c1ccc2ccccc2n1 :: Criterion met
CCn1cc(C(=O)O)c(=O)c2cc(F)c(N3CCNCC3)cc21 :: Criterion met
NC1=NC(=O)C(c2ccccc2)O1 (stereo not drawn) :: Criterion not met
CCCCc1oc2ccccc2c1C(=O)c1cc(I)c(OCCN(CC)CC)c(I)c1 :: Criterion not met
Nc1ccn([C@H]2CC[C@@H](CO)O2)c(=O)n1 :: Criterion met
ClC(Cl)Br :: Criterion met
Cc1ccc(/N=C/N(C)/C=N/c2ccc(C)cc2C)c(C)c1 :: Criterion met
Cc1ccc2cc3c(ccc4ccccc43)c3c2c1CC3 :: Criterion not met
O=C(CCCN1CC=C(n2c(=O)[nH]c3ccccc32)CC1)c1ccc(F)cc1 :: Criterion not met
CCCN1C[C@H](CSC)C[C@@H]2c3cccc4[nH]cc(c34)C[C@H]21 [PERGOLIDE] :: Criterion met
CN1CCN(CCCN2c3ccccc3Sc3ccc(Cl)cc32)CC1 :: Criterion met
ClC(Br)Br :: Criterion met
COc1nc(C)nc(Cl)c1N=C1NCCN1 :: Criterion met

* * *

Organism: Rattus norvegicus
Assay procedure: DrugMatrix - Regimen: Daily Repeat
Type: toxicity, organism-based, Sprague-Dawley
Design: regimen Daily Repeat, gender Male, age 6-8 weeks
Cond: in vivo, po, 0 mg/kg, 120 h, tissue Blood, route oral GAVAGE, dose level Control, time 5 day, vehicle 100 % WATER
The following compounds are listed with their measured ABSOLUTE LYMPHOCYTE values.
Measured metric: ABSOLUTE LYMPHOCYTE (CELLS/uL)

Cn1cc[nH]c1=S [METHIMAZOLE] :: 7596.17
NCCCCCC(=O)O [AMINOCAPROIC ACID] :: 14288.5
Cc1onc(-c2ccccc2Cl)c1C(=O)N[C@@H]1C(=O)N2[C@@H]1SC(C)(C)[C@@H]2C(=O)O [CLOXACILLIN] :: 14288.5
C[C@](N)(Cc1ccc(O)c(O)c1)C(=O)O [METHYLDOPA] :: 12797.33
CC(O)CO (centres undefined) [PROPYLENE GLYCOL] :: 14288.5
C[C@H]1c2cccc(O)c2C(=O)C2=C(O)[C@]3(O)C(=O)C(C(N)=O)=C(O)[C@@H](N(C)C)[C@@H]3[C@@H](O)[C@@H]21.O [DOXYCYCLINE] :: 7583.83
CN(C)CCCN1c2ccccc2Sc2ccc(Cl)cc21 [CHLORPROMAZINE] :: 9535
c1ccc([C@H]2CN3CCSC3=N2)cc1 [LEVAMISOLE] :: 12202.83
CNNCc1ccc(C(=O)NC(C)C)cc1 [PROCARBAZINE] :: 10538
N[C@@H](Cc1ccc(O)c(O)c1)C(=O)O [LEVODOPA] :: 7583.83
C=CCC1(C(C)CCC)C(=O)NC(=O)NC1=O (centres undefined) [SECOBARBITAL] :: 7918.33
C[C@H](CS)C(=O)N1CCC[C@H]1C(=O)O [CAPTOPRIL] :: 13301.33
COc1cc2nc(N3CCN(C(=O)C4COc5ccccc5O4)CC3)nc(N)c2cc1OC (centres undefined) [DOXAZOSIN] :: 7583.83
Clc1cccc(Cl)c1N=C1NCCN1 [CLONIDINE] :: 15680

* * *

Organism: Rattus norvegicus
Assay procedure: DrugMatrix - Regimen: Daily Repeat
Format: toxicity, organism-based, Sprague-Dawley
Parameters: regimen Daily Repeat, gender Male, age 6-8 weeks
Cond: in vivo, po, 0 mg/kg, 120 h, tissue Blood, route oral GAVAGE, dose level Control, time 5 day, […]
Quick reference: MEAN CORPUSCULAR VOLUME of the listed items.
Measured metric: MEAN CORPUSCULAR VOLUME (fL)

CC(C)(Oc1ccc(Cl)cc1)C(=O)O :: 61.97
O=NN(CCCl)C(=O)NC1CCCCC1 :: 62.48
OC(Cn1cncn1)(Cn1cncn1)c1ccc(F)cc1F :: 63.38
Cc1oncc1C(=O)Nc1ccc(C(F)(F)F)cc1 [LEFLUNOMIDE] :: 63.93
CN(C)c1nc(N(C)C)nc(N(C)C)n1 :: 62.48

* * *

Species on record: Rattus norvegicus
Assay procedure: DrugMatrix - Regimen: Daily Repeat
Format: toxicity, organism-based, Sprague-Dawley
Parameters: regimen Daily Repeat, gender Male, age 6-8 weeks
Cond: in vivo, po, 0 mg/kg, 72 h, tissue Blood, route oral GAVAGE, dose level Control, time 3 day, […]
Measured metric: MONOCYTE (%)

C[C@@H]1CN(c2c(F)c(N)c3c(=O)c(C(=O)O)cn(C4CC4)c3c2F)C[C@H](C)N1 [SPARFLOXACIN] :: 1.5
CN(C)c1nc(N(C)C)nc(N(C)C)n1 [ALTRETAMINE] :: 1.5
OC(Cn1cncn1)(Cn1cncn1)c1ccc(F)cc1F [FLUCONAZOLE] :: 1.83
O=c1oc2ccccc2c(O)c1Cc1c(O)c2ccccc2oc1=O [DICUMAROL] :: 1
O=C(O)CCCc1ccc(N(CCCl)CCCl)cc1 [CHLORAMBUCIL] :: 1.83
CC(C)(Oc1ccc(Cl)cc1)C(=O)O [CLOFIBRIC ACID] :: 0.83
C[C@H]1O[C@@H](O[C@H]2[C@@H](O)C[C@H](O[C@H]3[C@@H](O)C[C@H](O[C@H]4CC[C@@]5(C)[C@H](CC[C@@H]6[C@@H]5C[C@@H](O)[C@]5(C)[C@@H](C7=CC(=O)OC7)CC[C@]65O)C4)O[C@@H]3C)O[C@@H]2C)C[C@H](O)[C@@H]1O [DIGOXIN] :: 1.33
CCOC(=O)C1=C(COCCN)NC(C)=C(C(=O)OC)C1c1ccccc1Cl (stereo not drawn) [AMLODIPINE] :: 1.5
